Kindly supply the reported protein stability index values for the records listed here.
- Assay protocol: protein stability index of a GFP-peptide fusion (yeast GPS) (PSI 1-4); higher = more stable; sorted into four equal gates, so the index is relative within each strain
- Cond: doa10∆
Give a plain numeric answer without units written out.

// protein stability index lookup, key: VYINPSGEKIDFLLSDW [BRR2]
1.61

# iterate: ASTGSGKTLAFVIPILI [PRP28]
1.47

Try this sequence too: NLLIQRLNFNQNSSKIV [SWI3]
2.71

Next: ESKLSLETLFNRWHSES [FAS2]
3.26

Try the sequence PTHYKIPAWFLNRQNDI [RPS18A]
2.12

// query: ETSCDNYHPMNIDETSD [SMC4]
3.02

What do we get for MVMFMHMAKGLYYGSYR [COB] ?
1.18

Subsequent entry: HLCSGILSSVNRTVLLK [SRB8]
1.42

Thanks! And IRSVALNDSNVKSFKPH [RRP42] ?
2.63

Follow-up item: SGRCDGYILEGEELAFY [RPS8A]
3.32

Another sequence: ANHDDQDDIDEMVENSS [SRP68]
3.1

Next sequence: YLREDQMIDTSILPTRD [NUT1]
3.21

Ok, now LWVFQAFTCFCIKKIME [SRB8]
1.69

Next sequence up: TNGKPDMAILERYYELA [ARP7]
3.23

Another: AQSVGCRVDFKNPHDII [RPL12A]
2.15

SKFNNADDVFTGTGLQD [RPC31] , same question.
3.35

Queued: RPFGVALLIAGHDADDG [PUP2]
1.66

Similarly, VKAAINFSNVTDLTNNS [YIL149C/MLP2] ?
2.49

Param item: WLAEKFQKETNMKVTIL [PRP28]
2.81

Can you handle EGEKCHPQDFGNPGRIR [SEC65] next?
3.03

What do we get for FKRNAVFVGTIFAGAFV [QCR9] ?
1.92

Also EEEQDTGESEESSSEDD [IRR1] ?
3.23

Lookup LQKQILTVENKLQFETD [SMC1]
2.6

Record: PQGRQSTTFADCPVVPA [RPC40]
2.89

Same for FEIQGVPPMKLAYSKIV [YMR129W/POM152]
1.59

====

- Assay protocol: protein stability index of a GFP-peptide fusion (yeast GPS) (PSI 1-4); higher = more stable; sorted into four equal gates, so the index is relative within each strain
- Cond: san1∆
Quantity name: protein stability index
Returns: the value as a bare number; no unit string appended.

Need protein stability index, item VVLVSGEGERFTVDKKI [SKP1]
3.28

Same read-out for KGGEQISQLYSDAVMAE [YJL041W/NSP1] ?
2.19

What would you report for ADDADIEMKDVSSKPSK [MED1] ?
2.95

Likewise for LTKYIRSKNLIFNGETL [GRR1] ?
1.92

Input EKGLNELSIRDVTHTLG [SMC4]
2.48

Same question for TVKRGAAGIWTCSCCKK [RPL43A] please.
1.74

Now try IEKGSTFGINLIYVNPF [FAS1] .
2.71

Now consider AETIILSSAGKNSSVSS [SRB5] and answer again.
2.06

====

- Assay protocol: protein stability index of a GFP-peptide fusion (yeast GPS) (PSI 1-4); higher = more stable; sorted into four equal gates, so the index is relative within each strain
- Cond: doa10∆
Quantity name: protein stability index
Respond using a number only.

Given SNVLDGNKNQFEPSISR [LRP1] , state its recorded protein stability index.
3

Repeat with VSLCAKNMGLVPMKEEN [SSN2]
1.89

Repeat with GDANNRWDKEEYQSLMS [SMC1]
3.36

Okay, and IDDRDYVGNKRLELAGQ [RET1] ?
3.22

Further, for LARACAAQTNATFLKLA [RPT5] ?
2.76

Subsequent entry: HLSYCSNLTIYPIYELL [GRR1]
2.54

Again, but for VYTLACRSCPYEFPIEG [RPC11]
1.22

# iterate: SMVYSNVGELIEKNVME [RRP4]
2.06

And for IDQVNELVTISWVQPRI [RPN9] ?
3.33

Now consider MDIMEDFLRYINIKYLR [SNF2] .
1.54

Now the sequence PMPIITFLSEWGMEPLE [RPB2]
2.7

What about NLSSLIVEINNVSNTFN [YJL041W/NSP1] ?
2.45

Input IQIMANIDQEGSKQADR [PGD1]
3.2

And then DRTLPHFSKDDYSPESK [RPO21] , what is it?
3.07

And then DQLIISSSANKLLQLFL [YML103C/NUP188] , what is it?
1.91

What do we get for SIRLKVPPTIAQFQYTL [RPL8A] ?
2.09

Input SLHRQQQQQQQQVPPLP [DLS1]
2.78

How about this sequence: SVARVEDHDVHSNESSN [IRR1]
2.7

Entry TPYNIDRLTQLVRNGPN [RPO21] please
3.05

How about this sequence: EEAYDNPHDTLNRIKKY [PRP8]
3.42

Repeat for the following sequence: SKIIVFPRDGKAPEAEQ [RPL13B]
3.15

Field entry: ITSIMDDLALPYQHPPN [ITC1]
3.17

# iterate: DNSPSEDFMDIPKPRTA [SNF2]
2.57

Try this sequence next: QRIAKNDPEYMDTSDDA [DLS1]
3.01

Next up: ATFLLTDIKDTLTKISM [MCD1]
3.03

Entry MFTYSQETQHGNITRGL [RPN2] please
3.28

Likewise for ANGGSTIISPHKDIPEE [DSN1] ?
3.44

// repeat for NNSEQDQEIVIQQLHSV [ISW2] and report
2.48

Same for RSMLTVVRNMLALTTLS [YCG1]
1.91

Also PQAILAKNSIIDSSNLP [SWI1] ?
2.02

Next sequence: NVDYYNVAHRIKEDIKK [SNF2]
3.32

Param item: KKNNAASELANPYSSYV [YAR002W/NUP60]
2.99

Subsequent entry: DYVTNPDTKISSAAILG [RPN1]
2.42

Also need RIKITANNNMNDELVEL [GRR1] , thanks.
2.35

Likewise for ANNDINSLLSNFNDIPP [YDL088C/ASM4] ?
2.56

Moving on to the next sequence: AYFMVGAMGLLSSAGAK [RIP1]
1.99

Can you check VSSRVRGYTCQFVDMVL [FAS1] next?
1.76

Also, NDDELNKLLGNVTIAQG [HTA1] please.
3.31

Cool, now TVQSERAFQKQPHIFNN [RPS11A]
2.69

Thanks! And QFEIPISDDDDSALRYS [POP4] ?
2.98

Queued: FLERKCVHMVYEYAEHD [SSN3]
1.71

Again, but for LDSNNNNSNSNNNDNNN [SWI1]
2.65

What about this sequence? IPAGIYWYWWKNGNEYN [QCR8]
2.35

Repeat with KLNQKYDIVKFLTVSKL [GRR1]
1.76

Queued: AHIEKQSLDTIGGSDAA [RPO21]
3.18

Similarly, YFLDVKCPGCLNITTVF [RPS27A] ?
2.64

Similarly, ILRKELSEEKEVIFTDV [MCD1] ?
2.66

QVLMDINTLNGGSSDTA [GAL11] ?
3.29

How about this sequence: DDNNNNNNNNNNNNSTR [GRR1]
2.95

Also need RGRGRGRGRGRGRPPKA [SNF2] , thanks.
3.22

Same for IPATIFDKVIYHLHPTF [TAF14]
2.61

====

- Assay protocol: protein stability index of a GFP-peptide fusion (yeast GPS) (PSI 1-4); higher = more stable; sorted into four equal gates, so the index is relative within each strain
- Cond: pdr5∆
Binary call on protein stability index: yes (1) from 2 upward, no (0) beneath that.

Reported protein stability index reaches at least 2 for YEYAEHDLLQIIHFHSH [SSN3] ?
yes (1)

Moving on to the next sequence: NHNKTKLLKSLKNTKYF [PRP8]
no (0)

Now the sequence VVRNMLALTTLSEPLIK [YCG1]
no (0)

Try this sequence next: IVGKKIQEFLVVIEKRR [GRR1]
yes (1)

And the next one, GQLPQLPKLNLPKYQTI [SNF5] ?
yes (1)

Now this one: HVDSLIEDFVDGIANSK [SRB7]
yes (1)

For NEDQFLEEITQYEHLIK [YDL116W/NUP84] then?
yes (1)

Same thing, different sequence: YNLLVKISLHKREYLEV [RPN5]
no (0)

Entry AQSVGCRVDFKNPHDII [RPL12A] please
yes (1)

Next sequence up: EDEEEFSIFNYFKMFPA [RPC34]
yes (1)

Also check QRTATLCLEKLMCLSSK [YCS4]
yes (1)

Follow-up item: VLSINPDMYERKVENIR [MED7]
yes (1)

Now try INNNINIPQQQQMQPPN [GAL11] .
yes (1)

Continue with LHPQLHEVQYQESSSTL [SIN4]
yes (1)

Check TPLFPIDRNSTILYLNV [IRR1] too.
no (0)

Do the same for RPLPQWIRLRTNNTIRY [RPL39] please
no (0)

And what about the sequence LIQQVPPGLDALVKPET [CDC53] ?
yes (1)

Follow-up item: LKKANIIYHTTFSWLNA [YLR018C/POM34]
yes (1)

Cool, now EIKNDFIMVKGCIPGNR [RPL3]
no (0)

Here is the next sequence: RKLAVERAGHLLCDKAQ [PRE5]
yes (1)

Note, next up: SKVGSADTGRDDTKETV [RPN11]
yes (1)

Continue with ISTSFCFICLLHLANEH [BRN1]
no (0)

What about TELVDKANIFQVIKNEV [SSN2] ?
yes (1)

Ok, now SSLFLDGLEKAAFNGVT [FAS2]
yes (1)

// query: FVIGEQGKPYISLPKGK [RPS4A]
yes (1)

Follow-up item: IAHNISAKNRVVILARA [RPL32]
no (0)

SLTEKFSQTVADNNDLQ [ECM29] , same question.
yes (1)

Record: RIKITANNNMNDELVEL [GRR1]
yes (1)

What would you report for DVDQHGNDNNSDSNANA [SWI3] ?
yes (1)

// query: KRAFTKKVASANATAAE [RPL16A]
yes (1)

Request: AVLKKIQSKAVEQGYED [YCG1]
yes (1)

Same lookup for QEDFEVVEEFTPVVLAT [RPS5] , please.
yes (1)

// next record IIQPFLDNSKMDYHFIF [RGR1]
yes (1)

Next up: TTDNNNSGNSNSNSNQQ [RPT1]
yes (1)

Also need KFPDMGSLWVEFCDEPS [RPB5] , thanks.
yes (1)

Request: VYESEMEQCKQRYQDLS [YIL149C/MLP2]
yes (1)

Cool, now QINNVHLIPNEIKGASE [RPN4]
yes (1)

Here is the next sequence: NLVSLLIIVTRKNYMHV [YML031W/NDC1]
no (0)

Moving on to KKPGKIAKPNTANAKHT [SMB1]
yes (1)

Now the same for QNRRLAFEELEGSWDRG [PRP8]
yes (1)

Would you kindly repeat that for SIDSTSRIELELKNIGL [ECM29] ?
yes (1)

Entry to check: SIGSIYQWNLDGLQQLD [RPN1]
yes (1)

Field entry: NWRLVEVGRVVLIKKGQ [RPL14A]
no (0)

And the next one, ELSDSWRAHDSSIVAID [YGL100W/SEH1] ?
yes (1)

What do we get for LGNVIVPNILSLDMNSM [NUT1] ?
yes (1)

Next sequence: TENVAQARIILNHILEK [YGR119C/NUP57]
yes (1)

Record: ILGELKRVKSYMDKAKQ [LRP1]
yes (1)

Check VIFNDNVTETYSVYLIH [SIR3] too.
yes (1)

Thanks! And INGINWRFHTPQKYVLH [SIN4] ?
no (0)

Okay, and KENLSKSSWRQEWLANL [SIR4] ?
no (0)

Now consider KIREDHINKIPSNSTTT [SRB8] and answer again.
yes (1)

What do you get for RLLSALGPRGVSITPGK [SRP21] ?
yes (1)
